organism: Mus musculus; test: Compound was evaluated for its potency in CDF1 mice and the abdominal fat weight was determined.; format: functional, Abdomen
Can you tell me Abdominal fat for the items I'm about to list?
Entry rule: numbers only, all in g.

Quick one: Abdominal fat of "CC(C)CCC[C@@H](C)[C@H]1CC[C@H]2[C@@H]3CC[C@@H]4CC(=O)CC[C@]4(C)[C@H]3CC[C@]12C" ?
1.25

Quick one: Abdominal fat of "CC(C)CCC[C@@H](C)[C@H]1CC[C@H]2[C@@H]3C[C@H](Br)C4=CC(=O)CC[C@]4(C)[C@H]3CC[C@]12C" ?
0.81

Quick one: Abdominal fat of "CC(C)CCC[C@@H](C)[C@H]1CC[C@H]2[C@@H]3C=CC4=CC(=O)CC[C@]4(C)[C@H]3CC[C@]12C" ?
0.9

Quick one: Abdominal fat of "CC[C@H](CC[C@@H](C)[C@H]1CC[C@H]2[C@@H]3CCC4=CC(=O)CC[C@]4(C)[C@H]3CC[C@]12C)C(C)C" ?
1

Quick one: Abdominal fat of "CC(C)CCC[C@@H](C)[C@H]1CC[C@H]2[C@@H]3CCC4=CC(=O)C=C[C@]4(C)[C@H]3CC[C@]12C" ?
0.61

Quick one: Abdominal fat of CC(C)CCC[C@@H](C)[C@H]1CC[C@H]2[C@@H]3CC=C4CC(=O)CC[C@]4(C)[C@H]3CC[C@]12C [CHOLEST-5-EN-3-ONE] ?
0.48

Quick one: Abdominal fat of CC(C)CCC[C@@H](C)[C@H]1CC[C@H]2[C@@H]3CC[C@H]4CC(O)CC[C@]4(C)[C@H]3CC[C@]12C (stereo partly drawn) ?
0.9

Quick one: Abdominal fat of "CC(C)CCC[C@@H](C)[C@H]1CC[C@H]2[C@@H]3C[C@@H](O)C4=CC(=O)CC[C@]4(C)[C@H]3CC[C@]12C" ?
0.8

Quick one: Abdominal fat of "CC(C)CCC[C@@H](C)[C@H]1CC[C@H]2[C@@H]3CC=C4C=C(N5CCCC5)CC[C@]4(C)[C@H]3CC[C@]12C" ?
0.41

Quick one: Abdominal fat of CC(C)CCC[C@@H](C)[C@H]1CC[C@H]2[C@@H]3CC[C@H]4CC(=O)CC[C@]4(C)[C@H]3CC[C@]12C [CHOLESTAN-3-ONE] ?
0.92

Quick one: Abdominal fat of "CC(C)CCC[C@@H](C)[C@H]1CC[C@H]2[C@@H]3CC[C@@]45O[C@@H]4C(=O)CC[C@]5(C)[C@H]3CC[C@]12C" ?
1.12

Quick one: Abdominal fat of "CC(C)CCC[C@@H](C)[C@H]1CC[C@H]2[C@@H]3CC(=O)C4=CC(=O)CC[C@]4(C)[C@H]3CC[C@]12C" ?
0.3

Quick one: Abdominal fat of "CC(=O)OC1=CC2=CC[C@H]3[C@@H]4CC[C@H]([C@H](C)CCCC(C)C)[C@@]4(C)CC[C@@H]3[C@@]2(C)CC1" ?
1.03

----------
organism: Mus musculus; assay: Evaluated for potency in CDF1 mice and the ability of it to decrease feed consumption was determined; assay type: functional; note: test concentration or dose not given here
parameter-measured: Feed consumption (g/day)
Entry rule: numbers only, all in g/day.

Quick one: Feed consumption of "CC(C)CCC[C@@H](C)[C@H]1CC[C@H]2[C@@H]3CCC4=C(CSc5ccccc5)C(=O)CC[C@]4(C)[C@H]3CC[C@]12C" ?
6.23

Quick one: Feed consumption of "CC(C)CCC[C@@H](C)[C@H]1CC[C@H]2[C@@H]3C[C@H](O)[C@]4(O)CC(=O)CC[C@]4(C)[C@H]3CC[C@]12C" ?
5.39

Quick one: Feed consumption of CC(C)CCC[C@@H](C)[C@H]1CC[C@H]2[C@@H]3CC[C@H]4CC(O)CC[C@]4(C)[C@H]3CC[C@]12C (some centres not stated) ?
5.45

Quick one: Feed consumption of CC(C)CCC[C@@H](C)[C@H]1CC[C@H]2[C@@H]3CCC4=CC(=O)CC[C@]4(C)[C@H]3CC[C@]12C [4-CHOLESTEN 3-ONE] ?
5.43

Quick one: Feed consumption of "CC(C)CCC[C@@H](C)[C@H]1CC[C@H]2[C@@H]3CC[C@@H]4CC(=O)CC[C@]4(C)[C@H]3CC[C@]12C" ?
5.39

Quick one: Feed consumption of CC(C)CCC[C@@H](C)[C@H]1CC[C@H]2[C@@H]3CCC4CC(O)CC[C@]4(C)[C@H]3CC[C@]12C (some centres not stated) ?
6.48

Quick one: Feed consumption of "CC[C@H](CC[C@@H](C)[C@H]1CC[C@H]2[C@@H]3CCC4=CC(=O)CC[C@]4(C)[C@H]3CC[C@]12C)C(C)C" ?
4.94

Quick one: Feed consumption of CC[C@H](/C=C/[C@@H](C)[C@H]1CC[C@H]2[C@@H]3CC=C4CC(O)CC[C@]4(C)[C@H]3CC[C@]12C)C(C)C (some centres not stated) ?
6.3

Quick one: Feed consumption of "CC(C)CCC[C@@H](C)[C@H]1CC[C@H]2[C@@H]3CC[C@@]45O[C@@H]4C(=O)CC[C@]5(C)[C@H]3CC[C@]12C" ?
6.14

Quick one: Feed consumption of "CC[C@H](/C=C/[C@@H](C)[C@H]1CC[C@H]2[C@@H]3CC=C4CC(=O)CC[C@]4(C)[C@H]3CC[C@]12C)C(C)C" ?
6.37

Quick one: Feed consumption of "CC(C)CCC[C@@H](C)[C@H]1CC[C@H]2[C@@H]3C[C@@H](O)C4=CC(=O)CC[C@]4(C)[C@H]3CC[C@]12C" ?
5.7

Quick one: Feed consumption of CCCCCCCCC(=O)OC1CC[C@@]2(C)C(=CC[C@H]3[C@@H]4CC[C@H]([C@H](C)CCCC(C)C)[C@@]4(C)CC[C@@H]32)C1 (some centres not stated) ?
5.28
